Test: Inhibition of Mycobacterium tuberculosis kanamycin resistance enzyme Eis after 5 mins in presence of AcCoA by Ellman's reagent based assay
Hi there, I'd appreciate the recorded pIC50 for every entry that follows.
Numbers only, as −log10 of the molar value.

>>> print(df.to_string())
                              given_smiles  measured_endpoint  recorded_value
0  O=C(C[n+]1ccn2cccc2c1-c1ccccc1)c1ccccc1              pIC50            7.19

Turning now to a further compound:
## Input Fill in pIC50 for record `Cc1ccc(C(=O)C[n+]2ccn3cccc3c2-c2ccc(F)cc2)cc1`
## Output 7.10

----------
Test: Inhibition of Mycobacterium tuberculosis kanamycin resistance enzyme Eis preincubated for 10 mins followed by AcCoA addition and measured after 5 mins at interval of 30 sec for 20 mins by UV-Vis assay
Measured Endpoint: pIC50
One number for each entry, as −log10 of the molar value.

## Input Fill in pIC50 for record `Cn1c2ccc(F)cc2c2nnc(SCCN3CCCCC3)nc21`
## Output 7.52
